- Test system: Vero E6 infected with SARS-CoV-2
- method: inhibition of SARS-CoV-2 cytopathic effect; higher = more antiviral protection, active = above 15
- studyConditions: 833.33 nM; 48 h
endpointName: inhibition of SARS-CoV-2 cytopathic effect

Consider the following illustrative entries.
compound: N#C/C(=C\c1ccc(O)c(O)c1)C(N)=O
studySystem: Vero E6 infected with SARS-CoV-2
experimentalValue: 3.25% (inactive)
--
compound: C#C[C@]1(OC(C)=O)CC[C@H]2[C@@H]3CCC4=CC(=O)CC[C@@H]4[C@H]3CC[C@@]21C [norethindrone-acetate]
studySystem: Vero E6 infected with SARS-CoV-2
experimentalValue: 0.02% (inactive)
--
compound: O=C(/C=C/C=C/c1ccc2c(c1)OCO2)N1CCCCC1
studySystem: Vero E6 infected with SARS-CoV-2
experimentalValue: -2.45% (inactive)
--
compound: C[C@H](N)Cn1ccc2cc(F)c(Cl)cc21
studySystem: Vero E6 infected with SARS-CoV-2
experimentalValue: -2.16% (inactive)
--
compound: CC(C)NC[C@@H](C(=O)N1CCN(c2ncnc3c2[C@H](C)C[C@H]3O)CC1)c1ccc(Cl)cc1
studySystem: Vero E6 infected with SARS-CoV-2
experimentalValue: 2.69% (inactive)
--
compound: CC(O)(CS(=O)(=O)c1ccc(F)cc1)C(=O)Nc1ccc(C#N)c(C(F)(F)F)c1 (stereo not given) [bicalutamide]
studySystem: Vero E6 infected with SARS-CoV-2
experimentalValue: -0.42% (inactive)
--
compound: C[C@H](NC(=O)C(C)(C)Oc1ccc(C(F)(F)F)cn1)[C@@H](Cc1ccc(Cl)cc1)c1cccc(C#N)c1
studySystem: Vero E6 infected with SARS-CoV-2
experimentalValue: 1.39% (inactive)
--
compound: Cc1cccc(Nc2nc(-c3ccncc3)cs2)c1
studySystem: Vero E6 infected with SARS-CoV-2
experimentalValue: 8.36% (inactive)

Prompt: Could you share which inhibition of SARS-CoV-2 cytopathic effect value was measured for NC(=O)CCCCn1ccc(/N=C(\N)NCC(F)(F)F)n1 ?
Response: 0.05% (inactive)

Prompt: Another compound: CCOc1ccc(S(=O)(=O)O)c2cccnc12
Response: 1.14% (inactive)

* * *

- System: Vero E6 infected with SARS-CoV-2
- method: SARS-CoV-2 infection rate relative to infected DMSO; higher = more infection, active = 60 or less
- studyConditions: 24 h
endpointName: SARS-CoV-2 infection rate (%)
The figure you give is taken to be in %; do not add the unit.

molecule: COC(=O)C1=C(C)NC(C)=C(C(=O)OCCCN2CCC(c3ccccc3)(c3ccccc3)CC2)[C@@H]1c1cccc([N+](=O)[O-])c1 [dexniguldipine] (0.833333 µM)
endpointName: SARS-CoV-2 infection rate
readoutUnit: %
experimentalValue: 97.5

Prompt: Query SARS-CoV-2 infection rate on Vero E6 infected with SARS-CoV-2 for CCCNCCc1ccc(NS(=O)(=O)c2ccc(OC(F)(F)F)cc2)cc1 (10 µM)
Response: 110

Prompt: Another molecule: Oc1cc(O)c(Cl)cn1 [gimeracil] (10 µM)
Response: 107

Prompt: Another molecule: CC(=O)O[C@]1(C(C)=O)CC[C@H]2[C@@H]3C=C(Cl)C4=CC(=O)CC[C@]4(C)[C@H]3CC[C@@]21C [chlormadinone-acetate] (10 µM)
Response: 106

Prompt: Another molecule: C[C@H](Oc1cc(-c2cnn(C3CCNCC3)c2)cnc1N)c1c(Cl)ccc(F)c1Cl [crizotinib-(S)] (0.833333 µM)
Response: 99

Prompt: Another molecule: O=C(CN1CCN(C(=O)c2ccco2)CC1)Nc1cc(C(F)(F)F)ccc1Cl (10 µM)
Response: 103

Prompt: Another molecule: COc1ccc(C(=O)c2c(C)n(CCN3CCOCC3)c3ccccc23)cc1 [pravadoline] (10 µM)
Response: 106

Prompt: Another molecule: NS(=O)(=O)OC[C@@H]1C[C@@H](n2ccc3c(N[C@H]4CCc5ccccc54)ncnc32)C[C@@H]1O [pevonedistat] (0.833333 µM)
Response: 110
